Sourced from patent US5047414A

Assay: in vivo
Conditions: mouse, po
Recorded LD50 values for a group of molecules are listed next.
State the answer as a number, implicitly in mg/kg.

Check out these entries, answers already filled in.
• CCOC(=O)C1=C(CSCCN)NC(C)=C(C(=O)OC)C1c1ccc(F)cc1 (stereo not shown) = 46
• CCOC(=O)C1=C(CSCCN)NC(C)=C(C(=O)OCCN(C)Cc2ccccc2)C1c1cccc([N+](=O)[O-])c1 (stereo not shown) = 91
• COC(=O)C1=C(C)NC(CSCCN)=C(C(=O)OC)C1c1cccc([N+](=O)[O-])c1 (stereo not shown) = 53

Next:
Prompt: Assign LD50 to the following record: CCOC(=O)C1=C(CSCCN)NC(C)=C(C(=O)OC)C1c1ccccc1Cl (stereo not shown)
Completion: 5
